system: Goldblatt two-kidney renal hypertensive rats; test: Test 1: antihypertensive activity, oral, tail-plethysmographic blood pressure in Goldblatt two-kidney renal hypertensive rats; type: in vivo, rat (male STD Wistar strain); settings: oral, 0.1 millimole/kg, 7 hours after administration
Please assign Criterion not met whenever Change in blood pressure, 7 hours after administration is at or above -30 mmHg, and Criterion met whenever it is below.

> print(dat)
                                   compound     assigned.label
1  CC(=O)SC[C@@H](C)C(=O)N1CCC[C@H]1C(N)=O [Compound 3, reference compound]  Criterion not met
2  C[C@H](CSC(=O)c1ccccc1)C(=O)N1CCC[C@H]1C(=O)N[C@@H](Cc1ccccc1)C(=O)O [F]      Criterion met
3  CCOC(=O)[C@H](Cc1c[nH]c2ccccc12)NC(=O)[C@@H]1CCCN1C(=O)[C@H](C)CSC(C)=O [I]  Criterion not met
4  CCSSC[C@@H](C)C(=O)N1CCC[C@H]1C(=O)N[C@@H](Cc1ccccc1)C(=O)O [E]      Criterion met
5  C[C@H](CS)C(=O)N1CCC[C@H]1C(N)=O [Compound 2, reference compound]  Criterion not met
6  COC(=O)[C@H](Cc1ccc(O)cc1)NC(=O)[C@@H]1CCCN1C(=O)[C@H](C)CSC(C)=O [G]  Criterion not met
7  C[C@H](CS)C(=O)N1CCC[C@H]1C(=O)O [Compound 1, reference compound]  Criterion not met

Check if Change in blood pressure, 7 hours after administration falls below -30 mmHg for CCOC(=O)[C@H](Cc1ccc(O)cc1)NC(=O)[C@@H]1CCCN1C(=O)[C@H](C)CSC(C)=O [H] .
Criterion not met

====

test: in vivo; conditions: mouse, in vivo, po
value kind: LD50

> print(dat)
                               input.smiles  value.kind  recorded.value
1  CC(=O)SC[C@@H](C)C(=O)N1CCC[C@H]1C(=O)N[C@@H](Cc1ccccc1)C(=O)O        LD50    > 6000 mg/kg

// LD50 lookup, key: `CCC(=O)SC[C@@H](C)C(=O)N1CCC[C@H]1C(=O)N[C@@H](Cc1ccccc1)C(=O)O`
> 6000 mg/kg

====

So I've got a bunch of compounds here, and I need their Peak time (time at which the maximum hypotensive effect was observed) values.
test system: Goldblatt two-kidney renal hypertensive rats; experiment: Test 1: antihypertensive activity, oral, tail-plethysmographic blood pressure in Goldblatt two-kidney renal hypertensive rats; format: in vivo, rat (male STD Wistar strain); settings: oral, 0.1 millimole/kg, renal hypertensive rats
Give bare numbers, in h.

# count of solved cases: 3
> print(dat)
                                   compound  unit.label  recorded.value
1  CCOC(=O)[C@H](Cc1c[nH]c2ccccc12)NC(=O)[C@@H]1CCCN1C(=O)[C@H](C)CSC(C)=O [I]           h               5
2  CC(=O)SC[C@@H](C)C(=O)N1CCC[C@H]1C(N)=O [Compound 3, reference compound]           h               2
3  C[C@H](CSC(=O)c1ccccc1)C(=O)N1CCC[C@H]1C(=O)N[C@@H](Cc1ccccc1)C(=O)O [F]           h               5

Suppose we examine the compound CC(C)C(=O)SC[C@@H](C)C(=O)N1CCC[C@H]1C(=O)N[C@@H](Cc1ccccc1)C(=O)O [D] ; what Peak time (time at which the maximum hypotensive effect was observed) value has been reported?
5

Origin of the recorded values: patent US4248883A
